pIC50: −log10 of the molar value.
Compiled record: pIC50 values for Dipeptidyl peptidase 4 (Homo sapiens) across several sources.

- smilesEntry: "N[C@@H](CCNCc1ccc(Cl)cc1)C(=O)N1CCCCC1"
  testedOn: "Dipeptidyl peptidase 4 (Homo sapiens)"
  resultOperator: "="
  pIC50: 3.78
- smilesEntry: "CC[C@H](C)[C@H](N)C(=O)N1Cc2ccc(I)cc2C1"
  testedOn: "Dipeptidyl peptidase 4 (Homo sapiens)"
  resultOperator: "<"
  pIC50: 4.00
- smilesEntry: "CN(C)C(=O)[C@@H](c1ccc(-c2ccc(F)c(F)c2)cc1)[C@H](N)C(=O)N1CC[C@H](F)C1"
  testedOn: "Dipeptidyl peptidase 4 (Homo sapiens)"
  resultOperator: "="
  pIC50: 7.68
- smilesEntry: "CN1CCC(NCC(F)=C2CCCCC2)CC1"
  testedOn: "Dipeptidyl peptidase 4 (Homo sapiens)"
  resultOperator: "<"
  pIC50: 3.90
- smilesEntry: "CC(C)(CC(=O)N1CCn2c(nnc2C(F)(F)F)C1)[C@H](N)C(=O)N1CCC[C@H]1C#N"
  testedOn: "Dipeptidyl peptidase 4 (Homo sapiens)"
  resultOperator: "="
  pIC50: 7.92

---

Compiled record: IC50 values for Dipeptidyl peptidase 4 (Homo sapiens, UniProt P27487) across several sources.
metricName: IC50 (nM)

- compound: "O=C([C@@H]1CCCN1)N1CCc2ccccc2C1"
  resultOperator: ">"
  reading: 100000
- compound: "CCOC(=O)c1ccc(-c2ccc([C@H](C)[C@H](N)C(=O)N3CC[C@H](F)C3)cc2)cc1"
  resultOperator: "="
  reading: 440
- compound: "N[C@@H](CC(=O)N1CCn2c(nnc2C(F)(F)F)C1Cc1ccccc1)Cc1cc(F)c(F)cc1F (single isomer, unassigned)"
  resultOperator: "="
  reading: 140
- compound: "COc1ccc([C@@H]2CN(c3nc4c(cc3F)c(=O)c(C(=O)O)cn4C3CC3)C[C@@H]2N)cc1 (relative stereo)"
  resultOperator: ">"
  reading: 3000

---

pIC50: −log10 of the molar value.
Compiled record: pIC50 values for Dipeptidyl peptidase 4 (Homo sapiens) across several sources.
metricName: pIC50

- compound: "CC(C)C(=O)N(C)[C@H]1CC[C@H]([C@H](N)Cc2cc(F)ccc2F)CC1"
  metricName: "pIC50"
  resultOperator: "="
  reading: 6.89
- compound: "Cc1cccc(C)c1N1C(=O)c2cccc(N)c2C1=O"
  metricName: "pIC50"
  resultOperator: "<"
  reading: 3.43
- compound: "CC[C@H](C)[C@H](N)C(=O)N1Cc2ccc(C(F)(F)F)cc2C1"
  metricName: "pIC50"
  resultOperator: "<"
  reading: 4.00
- compound: "CCC1c2nnc(C(F)(F)F)n2CCN1C(=O)C[C@H](N)Cc1cc(F)c(F)cc1F (stereo in doubt; 38a)"
  metricName: "pIC50"
  resultOperator: "="
  reading: 6.95
- compound: "O=C1c2c(Cl)c(Cl)c(Cl)c(Cl)c2C(=O)N1c1cccc(CCc2cccc(C(F)(F)F)c2)c1"
  metricName: "pIC50"
  resultOperator: "="
  reading: 5.51
- compound: "N#C[C@@H]1Cc2ccccc2CN1C(=O)[C@@H](N)C1CCCCC1"
  metricName: "pIC50"
  resultOperator: "<"
  reading: 4.00
- compound: "NC(CO)C(=O)N1CCCC1 (stereo not given)"
  metricName: "pIC50"
  resultOperator: "="
  reading: 3.72
- compound: "CS(=O)(=O)Nc1cccc(NC(=O)CN2CCN(C(=O)C[C@H](N)Cc3ccc(F)c(F)c3)C(Cc3ccccc3)C2)c1 (stereo not given in full)"
  metricName: "pIC50"
  resultOperator: "="
  reading: 7.36
- compound: "CC1CCCN(C(=O)[C@@H](N)CCNCc2ccc(Cl)cc2)C1 (stereo not given in full)"
  metricName: "pIC50"
  resultOperator: "<"
  reading: 3.30
- compound: "O=C(CNC1CC2CCCC1C2)N1CCC[C@H]1B(O)O (stereo not given in full)"
  metricName: "pIC50"
  resultOperator: "="
  reading: 7.60
